Give log10(solubility at 24 h) for every item shown.
- methodDescription: Assessment of solubility (McIlvaine buffers, 24 h shake, UPLC-UV)
- Assay type: physicochemical
- experimentalContext: pH 4.5, aqueous buffer, kinetic from dmso stock
// do not treat as linear: log10 of solubility at 24 h, unit µg/mL

Per the records, this molecule ( COc1c(C(=O)O)cnn1-c1cccc(-c2cccc(C)c2OCc2ccc3c(c2F)CCN(C[C@@H]2COCCO2)C3)n1 ) has log10(solubility at 24 h) equal to 1.96

Lab book: log10(solubility at 24 h) of COc1c(C(=O)O)cnn1-c1cccc(-c2cccc(C)c2OCc2ccc3c(c2C)CCN(C[C@@H]2COCCO2)CC3)n1 noted as 1.86

What the record says about CC(C)Oc1c(C(=O)O)cnn1-c1cccc(-c2ccccc2OCc2ccc3c(c2)CCN(C2CCOCC2)C3)n1 : log10(solubility at 24 h) is 1.95

get_value(item= COc1c(C(=O)O)cnn1-c1cccc(-c2cccc(C)c2OCc2ccc3c(c2C)CCN([C@@H]2CCOC2)CC3)n1 , readout=log10(solubility at 24 h)) returns 1.83

Field log10(solubility at 24 h) (entry COc1c(C(=O)O)cnn1-c1cccc(-c2cccc(C)c2OCc2ccc3c(c2)C(C)(C)CN(C2CCOC2)C3)n1 (stereo not drawn) ) reads 1.86

Value of measured log10(solubility at 24 h) for the entry COc1c(C(=O)O)cnn1-c1cccc(-c2cccc(C)c2OCc2ccc3c(c2)CCN(C2C4CCOC4C2(C)C)C3)n1 (stereo not drawn) : 1.97

get_value(item= COc1c(C(=O)O)cnn1-c1cccc(-c2cccc(C)c2OCc2cc(C#N)c3c(c2)CCN(C2CCOCC2)C3)n1 , readout=log10(solubility at 24 h)) returns 1.91

Memo: CCOc1c(C(=O)O)cnn1-c1cccc(-c2cccc(C)c2OCc2ccc3c(c2OC)CCN(C2COC2)C3)n1 , reported log10(solubility at 24 h): 1.86

Reported log10(solubility at 24 h) of COc1c(C(=O)O)cnn1-c1cccc(-c2cccc(C(F)(F)F)c2OCc2ccc3c(c2C)CCN(C2CCOCC2)C3)n1 : 1.93

The value of log10(solubility at 24 h) measured for the molecule COc1c(C(=O)O)cnn1-c1cccc(-c2cccc(C)c2OCc2ccc3c(c2Cl)CCN(CC(C)(C)C)C3)n1 turned out to be 1.79

The molecule listed as Cc1cccc(-c2cccc(-n3ncc(C(=O)O)c3OC(C)C)n2)c1OCc1ccc2c(c1)CCN(C(C)C)C2 has a reported log10(solubility at 24 h) of 1.87

log10(solubility at 24 h) measured on COc1c(C(=O)O)cnn1-c1cccc(-c2cccc(C)c2OCc2ccc3c(c2)CCN(C2CC4CCC(C2)O4)C3)n1 (stereo not drawn) = 1.94

Kindly note the recorded log10(solubility at 24 h) for CCOc1c(C(=O)O)cnn1-c1cccc(-c2cccc(C)c2OCc2cc(C)c3c(c2)CCN(C2COC2)C3)n1 , which is 1.85

So for COc1c(C(=O)O)cnn1-c1cccc(-c2cccc(C)c2OCc2ccc3c(c2)CCN(CC2CCC2)C3)n1 , the logged log10(solubility at 24 h) turned out to be 1.58

Lab note: COc1c(C(=O)O)cnn1-c1cccc(-c2cccc(C)c2OCc2ccc3c(c2C)CCN(C2COC2)CC3)n1 gave log10(solubility at 24 h) of 1.89

Briefly, log10(solubility at 24 h) measured for Cc1cccc(-c2cccc(-n3ncc(C(=O)O)c3OC(C)C)n2)c1OCc1ccc2c(c1)CCN([C@@H]1CCCOC1)C2 : 1.90

Recorded log10(solubility at 24 h) (molecule COc1c(C(=O)O)cnn1-c1cccc(-c2cccc(C)c2OCc2ccc3c(c2C)CCN(CC(C)(C)C)C3)n1 ): 1.91

Memo: CCOc1c(C(=O)O)cnn1-c1cccc(-c2cccc(C)c2OCc2ccc3c(c2C)CCN(C[C@H]2CCOC2)C3)n1 , reported log10(solubility at 24 h): 1.90

// CCOc1c(C(=O)O)cnn1-c1cccc(-c2cccc(C)c2OCc2ccc3c(c2C)CCN(C2CCOCC2)C3=O)n1 : log10(solubility at 24 h) value = 0.40

# log10(solubility at 24 h) of CCOc1c(C(=O)O)cnn1-c1cccc(-c2cccc(C)c2OCc2ccc3c(c2C)CCN(C[C@@H]2COCCO2)CC3)n1 = 1.91

// sample CCOc1c(C(=O)O)cnn1-c1cccc(-c2cccc(C)c2OCc2ccc3c(c2)CCN(CC2(C)COC2)C3)n1 , its log10(solubility at 24 h) was 1.81

Given item CCOc1c(C(=O)O)cnn1-c1cccc(-c2cccc(C)c2OCc2ccc3c(c2)CCN(CC2CCOC(C)(C)C2)C3)n1 (stereo not drawn) , the value recorded as its log10(solubility at 24 h) is 1.97

log10(solubility at 24 h) recorded for this molecule, COc1c(C(=O)O)cnn1-c1cccc(-c2cccc(C)c2OCc2ccc3c(c2C)CCN(CC2(C)COC2)C3)n1 , is 1.92

// sample Cc1cccc(-c2cccc(-n3ncc(C(=O)O)c3OC(C)C)n2)c1OCc1ccc2c(c1)CCN(C1CCC(F)(F)CC1)C2 , its log10(solubility at 24 h) was 1.92

Looking up CCOc1c(C(=O)O)cnn1-c1cccc(-c2cccc(C)c2OCc2ccc3c(c2)CCN([C@H]2CCOC2)C3)n1 , I found its log10(solubility at 24 h) recorded as 1.98

The reported log10(solubility at 24 h) of the molecule CCOc1c(C(=O)O)cnn1-c1cccc(-c2cccc(C)c2OCc2ccc3c(c2C)CCN(C[C@@H]2CCCCO2)C3)n1 was 1.98

So for COc1c(C(=O)O)cnn1-c1cccc(-c2cccc(C)c2OCc2ccc3c(c2C)CCN([C@H]2CCCOC2)C3)n1 , the logged log10(solubility at 24 h) turned out to be 2.04

---

- methodDescription: human liver microsome (HLM) metabolic stability assay
- Assay type: in vitro ADME
- experimentalContext: human liver microsomes; % hepatic blood flow calculated from t1/2
observedProperty: HLM (% Qh)

Summary for this compound, COCCOc1c(C(=O)O)cnn1-c1cccc(-c2cccc(C)c2OCc2ccc3c(c2C)CCN(C2CCOC2)C3)n1 (stereo not shown) : HLM (% Qh) is <24 % Qh

For record COCC(C)N1CCc2cc(COc3c(C)cccc3-c3cccc(-n4ncc(C(=O)O)c4OC(C)C)n3)ccc2C1 (stereo not shown) the listed HLM (% Qh) is <24 % Qh

// field: HLM (% Qh); key: COc1c(C(=O)O)cnn1-c1cccc(-c2cccc(C)c2OCc2ccc3c(c2C)CCN([C@H]2CCCOC2)C3)n1 ; value = <24 % Qh

Form: compound = COc1c(C(=O)O)cnn1-c1cccc(-c2cccc(C)c2OCc2ccc3c(c2Cl)CCN(C2CCC2)C3)n1 ; HLM (% Qh) = 38 % Qh

Consider CCOc1c(C(=O)O)cnn1-c1cccc(-c2cccc(C)c2OCc2cc(C)c3c(c2)CCN([C@@H]2CCCOC2)C3)n1 . Its measured HLM (% Qh) is <24 % Qh

The compound listed as CCc1cc(COc2c(C)cccc2-c2cccc(-n3ncc(C(=O)O)c3OC)n2)cc2c1CN(C1COC1)CC2 shows HLM (% Qh) equal to <24 % Qh

According to the records, this compound CCOc1c(C(=O)O)cnn1-c1cccc(-c2cccc(C)c2OCc2ccc3c(c2C)CCN(CC2CCCOC2)C3)n1 (stereo not shown) displays HLM (% Qh) of <24 % Qh

---

- methodDescription: Assessment of solubility (McIlvaine buffers, 24 h shake, UPLC-UV)
- Type: physicochemical
- experimentalContext: pH 2.2, aqueous buffer, kinetic from dmso stock
observedProperty: solubility at 24 h

solubility at 24 h recorded for this compound, CCOc1c(C(=O)O)cnn1-c1cccc(-c2cccc(C)c2OCc2ccc3c(c2C)CCN(C[C@@H]2CCO2)CC3)n1 , is 96 µg/mL

Sure, the documented solubility at 24 h for CCOc1c(C(=O)O)cnn1-c1cccc(-c2cccc(C)c2OCc2cc(C)c3c(c2)CCN(C2CCCOC2)C3)n1 (stereo not shown) is 130 µg/mL

Documented solubility at 24 h of COc1c(C(=O)O)cnn1-c1cccc(-c2cc(C)cc(C)c2OCc2ccc3c(c2)CCN(C2CCOCC2)C3)n1 : 110 µg/mL

The reported value for COc1c(C(=O)O)cnn1-c1cccc(-c2cccc(C)c2OCc2ccc3c(c2)CCN(C2CCOCC2)C3)n1 in terms of solubility at 24 h is 96 µg/mL

Value of measured solubility at 24 h for the entry COc1c(C(=O)O)cnn1-c1cccc(-c2cccc(C)c2OCc2ccc3c(c2C)CCN(C[C@@H]2CCCCO2)C3)n1 : 120 µg/mL

Measured solubility at 24 h of CCOc1c(C(=O)O)cnn1-c1cccc(-c2cccc(C)c2OCc2ccc3c(c2)CCN(C2CC(C)OC(C)C2)C3)n1 (stereo not shown) : 110 µg/mL

Memo: COc1c(C(=O)O)cnn1-c1cccc(-c2ccccc2OCc2ccc3c(c2)CCN(C2CCOCC2)C3)n1 , reported solubility at 24 h: 110 µg/mL

Lab note: measured solubility at 24 h of Cc1cccc(-c2cccc(-n3ncc(C(=O)O)c3OC(C)C)n2)c1OCc1ccc2c(c1C)CCN(CC1(C)COC1)C2 was 100 µg/mL

Lab note: measured solubility at 24 h of COc1c(C(=O)O)cnn1-c1cccc(-c2cccc(C)c2OCc2ccc3c(c2)CCN(C[C@@H]2CCOC2)C3)n1 was 89 µg/mL

So for COc1c(C(=O)O)cnn1-c1cccc(-c2cccc(C(F)(F)F)c2OCc2ccc3c(c2)CN(C2CCOCC2)C3)n1 , the logged solubility at 24 h turned out to be 98 µg/mL

COCCOc1c(C(=O)O)cnn1-c1cccc(-c2cccc(C)c2OCc2ccc3c(c2C)CCN(C2CCOCC2)C3)n1 yielded solubility at 24 h of 110 µg/mL

solubility at 24 h recorded for this compound, CCOc1c(C(=O)O)cnn1-c1cccc(-c2cccc(C)c2OCc2ccc3c(c2C)CCN(CCOCCO)C3)n1 , is 110 µg/mL

// field: solubility at 24 h; key: CCOc1c(C(=O)O)cnn1-c1cccc(-c2cccc(C)c2OCc2cc(C)c3c(c2)CCN([C@H]2CCCOC2)C3)n1 ; value = 110 µg/mL

For record CCOc1c(C(=O)O)cnn1-c1cccc(-c2cccc(C)c2OCc2ccc3c(c2)CCN(CC2CC(F)(F)C2)C3)n1 the listed solubility at 24 h is 93 µg/mL

Per the record, COc1c(C(=O)O)cnn1-c1cccc(-c2cccc(C)c2OCc2ccc3c(c2C)CCN(C[C@H]2CCCO2)CC3)n1 has solubility at 24 h of 85 µg/mL

solubility at 24 h measured on COc1c(C(=O)O)cnn1-c1cccc(-c2cccc(C)c2OCc2ccc3c(c2Cl)CCN(C2CCC2)C3)n1 = 95 µg/mL

Lab note: COc1c(C(=O)O)cnn1-c1cccc(-c2cccc(C)c2OCc2ccc3c(c2)CCN(CC2(C)COC2)C3)n1 gave solubility at 24 h of 110 µg/mL

Briefly, solubility at 24 h measured for CCOc1c(C(=O)O)cnn1-c1cccc(-c2cccc(C)c2OCc2ccc3c(c2C)CCN(C[C@H]2CCCO2)CC3)n1 : 98 µg/mL

get_value(item= COc1c(C(=O)O)cnn1-c1cccc(-c2cccc(C)c2OCc2cc(C)c3c(c2)CCN(C2CCOCC2)C3)n1 , readout=solubility at 24 h) returns 120 µg/mL

compound CCOc1c(C(=O)O)cnn1-c1cccc(-c2cccc(C)c2OCc2cc(C)c3c(c2)CCN(C(C)COC)C3)n1 (stereo not shown) , solubility at 24 h observed: 110 µg/mL

Kindly note the recorded solubility at 24 h for COc1c(C(=O)O)cnn1-c1cccc(-c2cccc(C)c2OCc2ccc3c(c2C)CCN(C2CCOC2)C3)n1 (stereo not shown) , which is 110 µg/mL

Looking up CCOc1c(C(=O)O)cnn1-c1cccc(-c2cccc(C)c2OCc2ccc3c(c2C)CCN(C2CCOCC2)CC3)n1 , I see its solubility at 24 h listed as 100 µg/mL

Summary for this compound, CCOc1c(C(=O)O)cnn1-c1cccc(-c2cccc(C)c2OCc2ccc3c(c2C)CCN([C@H]2CCOC2)C3)n1 : solubility at 24 h is 110 µg/mL

Please fill in: solubility at 24 h reported for COc1c(C(=O)O)cnn1-c1cccc(-c2cccc(C)c2OCc2ccc3c(c2C)CCN(C[C@H]2CCCCO2)C3)n1 = 120 µg/mL

CCOc1c(C(=O)O)cnn1-c1cccc(-c2cccc(C)c2OCc2ccc3c(c2C)CCN(C2CCOCC2)C3=O)n1 has a reported solubility at 24 h of 0.68 µg/mL

The compound listed as Cc1cccc(-c2cccc(-n3ncc(C(=O)O)c3OC(C)C)n2)c1OCc1ccc2c(c1C)CCN(C1COC1)C2 has a reported solubility at 24 h of 82 µg/mL

What the record says about CCOc1c(C(=O)O)cnn1-c1cccc(-c2cccc(C)c2OCc2ccc3c(c2)CCN(C(C)CF)C3)n1 (stereo not shown) : solubility at 24 h is 92 µg/mL

Per the record, COc1c(C(=O)O)cnn1-c1cccc(-c2cccc(C)c2OCc2ccc3c(c2)CCN(CC2COCCO2)C3)n1 (stereo not shown) has solubility at 24 h of 110 µg/mL
